Test system: myeloid leukemia patient primary cells Pat.3
Assay: cell viability (% survival relative to DMSO control); higher = less cytotoxic
Details: 100 nM; 72 h
metricName: cell viability (%)
Numbers only; they are read as %.

// below: answered compounds
# compound, unitName, cell viability
measured = [
    ("CN(C)C(=O)n1nnnc1Cc1ccc(-c2ccccc2)cc1", "%", 82.7),
    ("O=C1c2cc([N+](=O)[O-])ccc2-n2c1nc1ccccc1c2=O", "%", 72.7),
    ("CCC(=O)N1CCN(c2ccc(-n3c(=O)ccc4cnc5ccc(-c6cnc7ccccc7c6)cc5c43)cc2C(F)(F)F)CC1", "%", 93.2),
    ("O=C1O/C(=C/Br)CCC1c1cccc2ccccc12 (stereo not given)", "%", 62.3),
]

Moving on to the next compound.
Give the reported value of cell viability for this record: "O=C(O)Cn1nnc(-c2cc(N3CCC(Oc4cc(F)ccc4Br)CC3)no2)n1"
78.1

---

System: MOLM-13
Assay: cell viability (% survival relative to DMSO control, bortezomib = 0%); higher = less cytotoxic
Conditions: 1000 nM; 72 h
Criterion: cell viability strictly less than 80%. Met: y. Not met: n.

As a guide, the following entries are already answered.
# compound, groupLabel
measured = [
    ("CC(C)(C#N)c1cc(Cn2cncn2)cc(C(C)(C)C#N)c1 [Anastrozole]", "n"),
    ("CC[C@@]1(O)C(=O)OCc2c1cc1n(c2=O)Cc2cc3c(CN(C)C)c(O)ccc3nc2-1 [Topotecan]", "y"),
    ("CCCCN1C[C@H](O)[C@@H](O)[C@H](O)[C@H]1CO [Miglustat]", "n"),
    ("CCOP(=O)(OCC)C(=Cc1cc(C(C)(C)C)c(O)c(C(C)(C)C)c1)P(=O)(OCC)OCC", "n"),
]

Shifting focus to the compound that follows.
Is cell viability strictly under 80% for the entry N#Cc1ccnc(N2C(=O)CC[C@H]2C(=O)N(c2cncc(F)c2)C(C(=O)NC2CC(F)(F)C2)c2ccccc2Cl)c1 (stereo partly specified) [Ivosidenib] ?
n

---

# key: entry, value: cell viability
Test system: NOMO-1
Experiment: cell viability (% survival relative to DMSO control, bortezomib = 0%); higher = less cytotoxic
Conditions: 1 nM; 72 h
Where a name gives a salt, the structure may show the parent alone.
Unit % implied. Number only.

# compound, cell viability [%]
measured = [
    ("Cc1cc(CS(=O)(=O)c2ccccc2)cc(OCc2ccc(CN3CCC[C@@H]3CO)cc2)c1 [PF-543 hydrochloride]", 89.2),
    ("O=c1oc2c(O)c(O)cc3c(=O)oc4c(O)c(O)cc1c4c23", 102),
    ("CCCCN1C[C@H](O)[C@@H](O)[C@H](O)[C@H]1CO", 94.3),
    ("CCC(=O)N1CCN(c2ccc(-n3c(=O)ccc4cnc5ccc(-c6cnc7ccccc7c6)cc5c43)cc2C(F)(F)F)CC1", 109),
    ("Cc1cn([C@H]2C[C@H](O)[C@@H](COP(=O)(O)OP(=O)(O)O)O2)c(=O)[nH]c1=O [Thymidine diphosphate]", 98.1),
    ("COc1ccc(S(=O)(=O)N2CCN(S(=O)(=O)c3ccc4c(c3)OCCO4)CC2)cc1", 98),
    ("NC(=O)c1cccc(-c2cccc(OC(=O)NC3CCCCC3)c2)c1", 101),
    ("C[C@](N)(Cc1ccc(O)cc1)C(=O)O", 95),
    ("CCCc1cc(-c2nc(-c3ccc(C)cc3)cs2)ccn1", 98.3),
    ("Cc1ccccc1C(C(=O)NC1CCCCC1)N(C(=O)Cn1ccnc1C)c1cccc(F)c1 (stereo not given)", 96),
]

Specify reported cell viability for the compound shown: "CC1(C)[C@@H](O[C@H]2O[C@H](C(=O)O)[C@@H](O)[C@H](O)[C@H]2O[C@@H]2O[C@H](C(=O)O)[C@@H](O)[C@H](O)[C@H]2O)CC[C@]2(C)[C@H]3C(=O)C=C4[C@@H]5C[C@@](C)(C(=O)O)CC[C@]5(C)CC[C@@]4(C)[C@]3(C)CC[C@@H]12"
97.5

State its cell viability for this compound: "Cc1coc2c1C(=O)C(=O)c1c-2ccc2c1CCCC2(C)C"
103

All figures here come from the supplement of paper PMC8671470.
